Target: Feline_OSMR_hlgG1_Fc (feline)
Sequence (chain, as listed by the source limits assumed, form in doubt): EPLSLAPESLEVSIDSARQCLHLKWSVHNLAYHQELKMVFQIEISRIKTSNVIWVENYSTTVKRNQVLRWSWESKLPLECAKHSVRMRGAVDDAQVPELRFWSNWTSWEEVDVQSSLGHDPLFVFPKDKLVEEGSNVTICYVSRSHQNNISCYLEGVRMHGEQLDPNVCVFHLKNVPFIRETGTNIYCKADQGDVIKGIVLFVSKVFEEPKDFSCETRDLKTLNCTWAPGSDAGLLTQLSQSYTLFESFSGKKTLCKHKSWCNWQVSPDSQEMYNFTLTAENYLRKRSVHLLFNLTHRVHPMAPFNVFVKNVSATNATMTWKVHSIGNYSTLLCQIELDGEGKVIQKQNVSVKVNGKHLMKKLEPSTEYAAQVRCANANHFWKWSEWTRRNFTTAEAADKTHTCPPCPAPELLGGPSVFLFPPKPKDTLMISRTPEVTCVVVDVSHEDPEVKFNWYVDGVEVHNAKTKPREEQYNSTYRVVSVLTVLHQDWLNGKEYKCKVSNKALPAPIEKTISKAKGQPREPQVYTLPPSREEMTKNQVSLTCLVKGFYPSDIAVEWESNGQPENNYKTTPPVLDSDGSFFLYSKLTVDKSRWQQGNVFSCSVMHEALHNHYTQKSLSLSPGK
Assay Details: SPR Biacore
Readings of Kd for the listed binders
The response must be a number in nM with no trailing unit.

Recorded Kd, per entry:
[Q] I'd like to know its Kd. The binder in question is Mu_09E09_VH (SEQ ID NO: 35)_D99A (antibody, V domains shown) VH: DVKLVESGEGLVKPGGSLKLSCAASGFTFSSYAMSWVRQTPEKRLEWVAYISSGGDYIYYADTVKGRFTISRDNARNTLYLQMSSLKSEDTAMYYCTRAPITGTFAYWGQGTLVTVSA VL: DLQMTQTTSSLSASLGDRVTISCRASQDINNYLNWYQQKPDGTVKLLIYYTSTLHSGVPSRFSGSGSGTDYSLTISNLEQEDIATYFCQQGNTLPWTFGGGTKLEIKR
[A] 1.76

[Q] Try the binder mouse: canine 10F07 chimera (antibody, V domains shown) VH: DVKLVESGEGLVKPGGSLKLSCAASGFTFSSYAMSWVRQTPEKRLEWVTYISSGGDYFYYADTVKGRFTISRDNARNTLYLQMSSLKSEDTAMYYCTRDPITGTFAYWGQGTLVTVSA VL: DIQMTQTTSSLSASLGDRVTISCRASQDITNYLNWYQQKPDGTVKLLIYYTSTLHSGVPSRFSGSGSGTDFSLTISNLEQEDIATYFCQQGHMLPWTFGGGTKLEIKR
[A] 1.57

[Q] Try the binder Mu_09E09_VH (SEQ ID NO: 35)_Y50A (antibody, V domains shown) VH: DVKLVESGEGLVKPGGSLKLSCAASGFTFSSYAMSWVRQTPEKRLEWVAAISSGGDYIYYADTVKGRFTISRDNARNTLYLQMSSLKSEDTAMYYCTRDPITGTFAYWGQGTLVTVSA VL: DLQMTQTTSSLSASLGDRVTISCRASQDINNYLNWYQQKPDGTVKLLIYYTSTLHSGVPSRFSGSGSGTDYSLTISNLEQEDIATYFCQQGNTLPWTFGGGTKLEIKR
[A] 2.85

[Q] Try the binder Mu_19F07_VL (SEQ ID NO: 49)_L50A (antibody, V domains shown) VH: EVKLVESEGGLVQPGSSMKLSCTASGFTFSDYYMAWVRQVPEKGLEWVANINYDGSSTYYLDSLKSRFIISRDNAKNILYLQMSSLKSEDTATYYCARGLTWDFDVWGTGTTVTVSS VL: DIVMTQSHKFMSPSVGDRVSITCKASQDVDTAVAWYQQKPGQSPKLLIYAASTRHTGVPDRFTGSGSGTDFTLTISNVQSEDLADYFCQQYSRFPLTFGAGTKLELKR
[A] 0.0143

[Q] Try the binder Mu_10F07_VL (SEQ ID NO: 41)_T97A (antibody, V domains shown) VH: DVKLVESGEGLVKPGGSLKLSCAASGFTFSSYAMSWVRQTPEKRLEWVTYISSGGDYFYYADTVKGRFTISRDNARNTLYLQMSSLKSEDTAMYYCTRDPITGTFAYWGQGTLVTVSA VL: DIQMTQTTSSLSASLGDRVTISCRASQDITNYLNWYQQKPDGTVKLLIYYTSTLHSGVPSRFSGSGSGTDFSLTISNLEQEDIATYFCQQGHMLPWAFGGGTKLEIKR
[A] 1.63

---
[Q] I'd like to know its Kd. The binder in question is mouse: canine 09E09 chimera (antibody, V domains shown) VH: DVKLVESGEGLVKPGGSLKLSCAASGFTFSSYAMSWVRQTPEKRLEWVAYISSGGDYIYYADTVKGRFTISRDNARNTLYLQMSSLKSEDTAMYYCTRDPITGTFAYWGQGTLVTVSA VL: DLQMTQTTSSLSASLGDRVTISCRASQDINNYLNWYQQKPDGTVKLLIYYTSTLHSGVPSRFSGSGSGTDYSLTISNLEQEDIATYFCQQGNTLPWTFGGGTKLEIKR
[A] 1.24

[Q] Try the binder Mu_02D09_VH (SEQ ID NO: 31)_D31A (antibody, V domains shown) VH: EVQLVESGGGLVKPGGSLTLSCAASGFTFSAYGMHWLRQAPEKGLEWVAYISSGSRAVFFADTVKGRFTISRDNAKNTLFLQMTSLRSDDTAMYYCARDRYDGRGFAYWGQGTLVTVSA VL: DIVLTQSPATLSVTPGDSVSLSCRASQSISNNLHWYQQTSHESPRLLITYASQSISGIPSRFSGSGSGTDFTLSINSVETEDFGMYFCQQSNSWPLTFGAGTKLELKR
[A] 0.767

[Q] Try the binder Mu_10F07_VL (SEQ ID NO: 41)_T53A (antibody, V domains shown) VH: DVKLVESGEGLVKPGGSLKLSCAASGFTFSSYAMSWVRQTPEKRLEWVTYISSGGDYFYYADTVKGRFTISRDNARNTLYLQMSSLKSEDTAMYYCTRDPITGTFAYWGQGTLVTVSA VL: DIQMTQTTSSLSASLGDRVTISCRASQDITNYLNWYQQKPDGTVKLLIYYTSALHSGVPSRFSGSGSGTDFSLTISNLEQEDIATYFCQQGHMLPWTFGGGTKLEIKR
[A] 1.83

[Q] Try the binder Mu_02D09_VL (SEQ ID NO: 33)_L96A (antibody, V domains shown) VH: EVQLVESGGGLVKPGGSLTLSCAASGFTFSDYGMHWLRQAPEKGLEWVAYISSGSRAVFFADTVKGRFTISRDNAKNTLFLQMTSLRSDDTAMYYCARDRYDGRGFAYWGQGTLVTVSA VL: DIVLTQSPATLSVTPGDSVSLSCRASQSISNNLHWYQQTSHESPRLLITYASQSISGIPSRFSGSGSGTDFTLSINSVETEDFGMYFCQQSNSWPATFGAGTKLELKR
[A] 0.000648

[Q] Try the binder Mu_19F07_VH (SEQ ID NO: 47)_Y59A (antibody, V domains shown) VH: EVKLVESEGGLVQPGSSMKLSCTASGFTFSDYYMAWVRQVPEKGLEWVANINYDGSSTAYLDSLKSRFIISRDNAKNILYLQMSSLKSEDTATYYCARGLTWDFDVWGTGTTVTVSS VL: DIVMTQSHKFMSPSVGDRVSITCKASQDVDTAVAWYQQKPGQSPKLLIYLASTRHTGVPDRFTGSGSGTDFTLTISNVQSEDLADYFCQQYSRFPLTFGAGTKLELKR
[A] 0.4
